# EXPERIMENT: Multiple Ascending Dose (MAD) study, pharmacokinetics in healthy volunteers
# Assay type: in vivo, human
# TEST PARAMETERS: human, in vivo, oral, 16 mg, 16 mg BID, Day 7, n = 8; arithmetic mean; read-out: AUCtau/AUC0-12hr
READOUT LABEL: AUC(0-t)
Kindly write the number and append the unit.

Can you share its AUC(0-t)? I mean this compound: [2H]C1([2H])C([C@@H](CC#N)n2cc(-c3ncnc4[nH]ccc34)cn2)C([2H])([2H])C([2H])([2H])C1([2H])[2H] [Compound (I)]
1.13 µg·h/mL

----------
# EXPERIMENT: Single Ascending Dose (SAD) study, pharmacokinetics in healthy volunteers
# Format: in vivo, human
# TEST PARAMETERS: human, in vivo, oral; single dose 16 mg as phosphate salt, fasted, n = 6; arithmetic mean; read-out: Vz/F
READOUT LABEL: Vd/F (L)
A number alone suffices; assume L.

Quick one: Vd/F for [2H]C1([2H])C([C@@H](CC#N)n2cc(-c3ncnc4[nH]ccc34)cn2)C([2H])([2H])C([2H])([2H])C1([2H])[2H] ?
61

----------
# EXPERIMENT: Single Ascending Dose (SAD) study, pharmacokinetics in healthy volunteers
# Format: in vivo, human
# TEST PARAMETERS: human, in vivo, oral; single dose 8 mg as phosphate salt, fasted, n = 6; arithmetic mean
READOUT LABEL: Cmax
Kindly write the number and append the unit.

Which Cmax is listed for [2H]C1([2H])C([C@@H](CC#N)n2cc(-c3ncnc4[nH]ccc34)cn2)C([2H])([2H])C([2H])([2H])C1([2H])[2H] [Compound (I)] ?
118 ng/mL

----------
# EXPERIMENT: Multiple Ascending Dose (MAD) study, pharmacokinetics in healthy volunteers
# Type: in vivo, human
# TEST PARAMETERS: human, in vivo, oral, 16 mg, 16 mg BID, Day 1, n = 8; median
READOUT LABEL: Tmax (h)
API: value field is a number in h; no unit string.

I am curious: what Tmax value has been reported for [2H]C1([2H])C([C@@H](CC#N)n2cc(-c3ncnc4[nH]ccc34)cn2)C([2H])([2H])C([2H])([2H])C1([2H])[2H] [Compound (I)] ?
1

----------
# EXPERIMENT: Single Ascending Dose (SAD) study, pharmacokinetics in healthy volunteers
# Format: in vivo, human
# TEST PARAMETERS: human, in vivo, oral; single dose 48 mg as phosphate salt, fasted, n = 5; arithmetic mean; read-out: Vz/F
READOUT LABEL: Vd/F (L)
Quick reminder: number only, in L, skip the unit.

Any idea what Vd/F was measured for [2H]C1([2H])C([C@@H](CC#N)n2cc(-c3ncnc4[nH]ccc34)cn2)C([2H])([2H])C([2H])([2H])C1([2H])[2H] ?
63.2

----------
# EXPERIMENT: Multiple Ascending Dose (MAD) study, pharmacokinetics in healthy volunteers
# Format: in vivo, human
# TEST PARAMETERS: human, in vivo, oral, 32 mg, 32 mg QD, Day 1, n = 8; arithmetic mean; read-out: C24hr
READOUT LABEL: concentration at 24 h (ng/mL)
Numbers only; they are read as ng/mL.

Please look up its concentration at 24 h: [2H]C1([2H])C([C@@H](CC#N)n2cc(-c3ncnc4[nH]ccc34)cn2)C([2H])([2H])C([2H])([2H])C1([2H])[2H] [Compound (I)]
2.95

----------
# EXPERIMENT: Multiple Ascending Dose (MAD) study, pharmacokinetics in healthy volunteers
# Type: in vivo, human
# TEST PARAMETERS: human, in vivo, oral, 8 mg, 8 mg QD, Day 1, n = 7; arithmetic mean; read-out: C24hr
READOUT LABEL: concentration at 24 h (ng/mL)
# number only, unit ng/mL dropped from output

Could you share which concentration at 24 h value was measured for [2H]C1([2H])C([C@@H](CC#N)n2cc(-c3ncnc4[nH]ccc34)cn2)C([2H])([2H])C([2H])([2H])C1([2H])[2H] [Compound (I)] ?
0.86

----------
# EXPERIMENT: Single Ascending Dose (SAD) study, pharmacokinetics in healthy volunteers
# Type: in vivo, human
# TEST PARAMETERS: human, in vivo, oral; single dose 16 mg as phosphate salt, fasted, n = 6; arithmetic mean
READOUT LABEL: half-life (min)
Write the answer as a number in min, unit excluded.

// lookup half-life for [2H]C1([2H])C([C@@H](CC#N)n2cc(-c3ncnc4[nH]ccc34)cn2)C([2H])([2H])C([2H])([2H])C1([2H])[2H]
199

----------
# EXPERIMENT: Single Ascending Dose (SAD) study, pharmacokinetics in healthy volunteers
# Type: in vivo, human
# TEST PARAMETERS: human, in vivo, oral; single dose 48 mg as phosphate salt, fasted, n = 5; arithmetic mean; read-out: AUC0-24hr
READOUT LABEL: AUC(0-t)
Express your answer as a number followed by its unit.

Look at this compound and give its reported AUC(0-t). [2H]C1([2H])C([C@@H](CC#N)n2cc(-c3ncnc4[nH]ccc34)cn2)C([2H])([2H])C([2H])([2H])C1([2H])[2H] [Compound (I)]
4100 ng·h/mL

----------
# EXPERIMENT: Multiple Ascending Dose (MAD) study, pharmacokinetics in healthy volunteers
# Assay type: in vivo, human
# TEST PARAMETERS: human, in vivo, oral, 8 mg, 8 mg BID, Day 1, n = 4; arithmetic mean; read-out: C12hr
READOUT LABEL: concentration at 12 h (ng/mL)
Reply with just the number (in ng/mL).

Tell me the measured concentration at 12 h of [2H]C1([2H])C([C@@H](CC#N)n2cc(-c3ncnc4[nH]ccc34)cn2)C([2H])([2H])C([2H])([2H])C1([2H])[2H] , please.
13.7

----------
# EXPERIMENT: Multiple Ascending Dose (MAD) study, pharmacokinetics in healthy volunteers
# Assay type: in vivo, human
# TEST PARAMETERS: human, in vivo, oral, 24 mg, 24 mg QD, Day 7, n = 8; arithmetic mean
READOUT LABEL: Cmax

Could you share which Cmax value was measured for [2H]C1([2H])C([C@@H](CC#N)n2cc(-c3ncnc4[nH]ccc34)cn2)C([2H])([2H])C([2H])([2H])C1([2H])[2H] ?
310 ng/mL

----------
# EXPERIMENT: Single Ascending Dose (SAD) study, pharmacokinetics in healthy volunteers
# Assay type: in vivo, human
# TEST PARAMETERS: human, in vivo, oral; single dose 32 mg as phosphate salt, fasted, n = 6; arithmetic mean; read-out: Vz/F
READOUT LABEL: Vd/F (L)
// units = L; emit number, no label

Query (molecule): [2H]C1([2H])C([C@@H](CC#N)n2cc(-c3ncnc4[nH]ccc34)cn2)C([2H])([2H])C([2H])([2H])C1([2H])[2H] ; field requested: Vd/F
68.4

----------
# EXPERIMENT: Single Ascending Dose (SAD) study, pharmacokinetics in healthy volunteers
# Assay type: in vivo, human
# TEST PARAMETERS: human, in vivo, oral; single dose 16 mg as phosphate salt, fasted, n = 6; arithmetic mean
READOUT LABEL: Cmax (ng/mL)
I only need the number, in ng/mL, no unit after it.

Return reported Cmax; argument: [2H]C1([2H])C([C@@H](CC#N)n2cc(-c3ncnc4[nH]ccc34)cn2)C([2H])([2H])C([2H])([2H])C1([2H])[2H]
260

----------
# EXPERIMENT: Multiple Ascending Dose (MAD) study, pharmacokinetics in healthy volunteers
# Format: in vivo, human
# TEST PARAMETERS: human, in vivo, oral, 16 mg, 16 mg BID, Day 1, n = 8; arithmetic mean
READOUT LABEL: half-life
Reply with the number and its unit after it.

Dear colleague, I am looking for the recorded half-life of the following compound: [2H]C1([2H])C([C@@H](CC#N)n2cc(-c3ncnc4[nH]ccc34)cn2)C([2H])([2H])C([2H])([2H])C1([2H])[2H]
2.89 h

----------
# EXPERIMENT: Single Ascending Dose (SAD) study, pharmacokinetics in healthy volunteers
# Type: in vivo, human
# TEST PARAMETERS: human, in vivo, oral; single dose 8 mg as phosphate salt, fasted, n = 6; arithmetic mean
READOUT LABEL: AUC(0-inf) (ng·h/mL)
Form entry: value (ng·h/mL) — number only.

# input compound: [2H]C1([2H])C([C@@H](CC#N)n2cc(-c3ncnc4[nH]ccc34)cn2)C([2H])([2H])C([2H])([2H])C1([2H])[2H] ; wanted: its AUC(0-inf)
589

----------
# EXPERIMENT: Multiple Ascending Dose (MAD) study, pharmacokinetics in healthy volunteers
# Format: in vivo, human
# TEST PARAMETERS: human, in vivo, oral, 32 mg, 32 mg QD, Day 1, n = 8; arithmetic mean; read-out: AUCtau/AUC0-24hr
READOUT LABEL: AUC(0-t) (ng·h/mL)
Just the number please, in ng·h/mL, no unit attached.

Item under review: [2H]C1([2H])C([C@@H](CC#N)n2cc(-c3ncnc4[nH]ccc34)cn2)C([2H])([2H])C([2H])([2H])C1([2H])[2H] [Compound (I)] . Reported AUC(0-t)?
2220

Numbers sourced from patent US12076323B2.
